Measured DC50, listed per entry for reference.
Biological target: Nanoluciferase-BRD9 fusion protein (Homo sapiens (Human))
Sequence (Q9H8M2 whole entry, the tested form may be a part): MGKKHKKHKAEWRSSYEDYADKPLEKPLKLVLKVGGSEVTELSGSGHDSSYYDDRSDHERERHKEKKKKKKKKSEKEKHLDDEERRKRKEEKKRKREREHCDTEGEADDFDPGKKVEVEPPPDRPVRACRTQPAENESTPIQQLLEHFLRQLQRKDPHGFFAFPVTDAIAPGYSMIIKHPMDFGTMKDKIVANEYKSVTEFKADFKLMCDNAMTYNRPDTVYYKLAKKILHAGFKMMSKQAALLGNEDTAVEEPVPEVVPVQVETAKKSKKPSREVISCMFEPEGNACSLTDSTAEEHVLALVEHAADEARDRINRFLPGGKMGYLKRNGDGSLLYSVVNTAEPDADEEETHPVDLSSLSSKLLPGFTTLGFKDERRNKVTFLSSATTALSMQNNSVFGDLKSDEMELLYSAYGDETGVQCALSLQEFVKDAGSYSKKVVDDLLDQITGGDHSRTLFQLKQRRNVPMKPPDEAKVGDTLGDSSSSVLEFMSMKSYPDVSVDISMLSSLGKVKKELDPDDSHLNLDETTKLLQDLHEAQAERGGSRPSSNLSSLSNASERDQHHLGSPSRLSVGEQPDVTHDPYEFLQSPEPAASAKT
Assay: SYO1 BRD9 NanoLuc degradation assay
Type: cell-based
Details: Table 5B; SYO-1 cells expressing 3×FLAG-NLuc-BRD9, 6 hours; read-out: SYO1 BRD9-NanoLuc degradation IC50

Here are 10 molecules together with their reported answers.
COc1cc(-c2cn(C)c(=O)c3cnccc23)cc(OC)c1CN(C)C(=O)CCCCNC1CC2(C1)CN(c1ccc3c(c1)C(=O)N(C1CCC(=O)NC1=O)C3=O)C2 (stereo not shown) ... < 10 nM
COc1cc(-c2cn(C)c(=O)c3cncn23)cc(OC)c1CN1CC(CN2CCC3(CC2)CN(c2ccc4c(c2)CN(C2CCC(=O)NC2=O)C4=O)C3)C1 (stereo not shown) ... < 10 nM
COc1cc(-c2cc(C)c(=O)n(C)c2)c(OC)cc1CN1CC(CN2CCC3(CC2)CN(c2ccc4c(c2)C(=O)N(C2CCC(=O)NC2=O)C4=O)C3)C1 (stereo not shown) ... < 10 nM
COc1cc(-c2cn(C)c(=O)c3cnccc23)cc(OC)c1CN1CCN(CCCC#Cc2ccc3c(c2)C(=O)N(C2CCC(=O)NC2=O)C3=O)CC1 (stereo not shown) ... < 10 nM
COc1cc(-c2cn(C)c(=O)c3cnccc23)cc(OC)c1CN1CC(CC(=O)N2CC3(CCC(Oc4ccc5c(c4)C(=O)N(C4CCC(=O)NC4=O)C5=O)C3)C2)C1 (stereo not shown) ... 100 to 1000 nM
COc1cc(-c2cn(C)c(=O)c3cnccc23)cc(OC)c1CN(C)CCn1cc(CN2CC(Oc3ccc4c(c3)C(=O)N(C3CCC(=O)NC3=O)C4=O)C2)nn1 (stereo not shown) ... 10 to 100 nM
COc1cc(-c2cn(C)c(=O)c3cnccc23)cc(OC)c1CN1CC2(CCN(C(=O)CC#Cc3ccc4c(c3)C(=O)N(C3CCC(=O)NC3=O)C4=O)C2)C1 (stereo not shown) ... 10 to 100 nM
COc1cc(-c2cn(C)c(=O)c3cnccc23)cc(OC)c1CN(C)CCOCCn1cc(COc2ccc3c(c2)C(=O)N(C2CCC(=O)NC2=O)C3=O)nn1 (stereo not shown) ... < 10 nM
COc1cc(-c2cn(C)c(=O)c3cnccc23)cc(OC)c1CN1CCN(C(=O)CC#Cc2ccc3c(c2)C(=O)N(C2CCC(=O)NC2=O)C3=O)CC1 (stereo not shown) ... < 10 nM
COc1cc(-c2cn(C)c(=O)c3cnccc23)cc(OC)c1CN1CCC(n2cc(COC3CCN(c4ccc5c(c4)C(=O)N(C4CCC(=O)NC4=O)C5=O)CC3)nn2)CC1 (stereo not shown) ... 10 to 100 nM

Exam item: What DC50 appears in the records for this molecule with Nanoluciferase-BRD9 fusion protein (Homo sapiens (Human))? COc1cc(-c2cn(C)c(=O)c3cnccc23)cc(OC)c1Cn1cc(COC2CN(c3ccc4c(c3)C(=O)N(C3CCC(=O)NC3=O)C4=O)C2)nn1 (stereo not shown)
Marked response: < 10 nM

Exam item: What DC50 appears in the records for this molecule with Nanoluciferase-BRD9 fusion protein (Homo sapiens (Human))? COc1cc(-c2cn(C)c(=O)c3cnccc23)cc(OC)c1CN1CCC2C(C1)CN2C(=O)CCC#Cc1ccc2c(c1)C(=O)N(C1CCC(=O)NC1=O)C2=O (stereo not shown)
Marked response: < 10 nM

Exam item: What DC50 appears in the records for this molecule with Nanoluciferase-BRD9 fusion protein (Homo sapiens (Human))? COc1cc(-c2cn(C)c(=O)c3cnncc23)cc(OC)c1CN1CCC(CN2CCC3(CC2)CC(Oc2ccc4c(c2)C(=O)N(C2CCC(=O)NC2=O)C4)C3)CC1 (stereo not shown)
Marked response: < 10 nM
